measured_target: GBA2 (Homo sapiens, UniProt Q9HCG7)
Sequence (Q9HCG7 1-927): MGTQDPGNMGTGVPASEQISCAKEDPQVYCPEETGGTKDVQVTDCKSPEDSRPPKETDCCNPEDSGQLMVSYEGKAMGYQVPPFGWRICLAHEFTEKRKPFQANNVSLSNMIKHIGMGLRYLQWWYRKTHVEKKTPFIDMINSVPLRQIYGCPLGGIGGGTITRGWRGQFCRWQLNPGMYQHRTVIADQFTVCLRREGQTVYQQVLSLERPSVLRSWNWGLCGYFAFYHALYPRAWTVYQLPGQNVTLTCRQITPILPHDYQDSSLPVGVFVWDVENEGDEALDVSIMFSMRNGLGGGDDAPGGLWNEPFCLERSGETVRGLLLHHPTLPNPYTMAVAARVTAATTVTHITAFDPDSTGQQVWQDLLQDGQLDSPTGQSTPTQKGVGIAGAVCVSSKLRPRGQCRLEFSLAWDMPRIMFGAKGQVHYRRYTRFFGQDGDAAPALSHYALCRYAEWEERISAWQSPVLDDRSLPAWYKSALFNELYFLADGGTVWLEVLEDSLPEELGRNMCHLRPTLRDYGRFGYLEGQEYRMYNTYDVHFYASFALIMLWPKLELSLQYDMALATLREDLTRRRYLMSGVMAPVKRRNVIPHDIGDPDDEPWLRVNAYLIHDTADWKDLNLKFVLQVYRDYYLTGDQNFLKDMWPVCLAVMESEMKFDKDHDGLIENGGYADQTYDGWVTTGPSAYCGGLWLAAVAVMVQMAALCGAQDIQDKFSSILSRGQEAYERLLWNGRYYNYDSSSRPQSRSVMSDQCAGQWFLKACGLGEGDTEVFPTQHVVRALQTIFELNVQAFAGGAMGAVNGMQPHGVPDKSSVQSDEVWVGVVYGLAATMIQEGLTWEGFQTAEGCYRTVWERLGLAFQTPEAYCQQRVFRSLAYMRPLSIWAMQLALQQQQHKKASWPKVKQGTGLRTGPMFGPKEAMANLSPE
procedure_summary: Determination of IC50 values for inhibition of GBA2 in cell lysate
Format: biochemical
Design: host or cells: HEK293T (lentiviral transduction, puromycin selection); used as cellular homogenate
conditions: cellular homogenate of HEK293T cells overexpressing human GBA2, 250 μM 4-methylumbelliferone-β-D glucopyranoside, pH 5.5, 37° C., GCase inhibitor present; read-out: GBA2 IC50
pIC50: −log10 of the molar value.
assay_readout: pIC50

1) C[C@@H]1[C@@H](O)[C@H](O)[C@@H](O)CN1CC1CCN(c2cccc(F)c2)CC1 [Example 84] :: > 7.00
2) O[C@H]1[C@H](O)[C@@H](O)CN(CC2CCN(c3ccc(C(F)(F)F)cc3)CC2)[C@@H]1CF [Example 155] :: > 7.00
3) C[C@@H]1[C@@H](O)[C@H](O)[C@@H](O)CN1CCc1c(F)cc(N2CCOCC2)cc1F [Example 58] :: > 7.00
4) C[C@@H]1[C@@H](O)[C@H](O)[C@@H](O)CN1C[C@H]1CC[C@@H](C(C)(C)F)CC1 [Example 13] :: > 7.00

Could you now look at the following compound, please?
What does the data say about its pIC50? Entry: C[C@@H]1[C@@H](O)[C@H](O)[C@@H](O)CN1C[C@@H]1CCN(c2ncccc2C(F)(F)F)C1 [Example 132]
> 7.00

Origin of values: patent US12612380B2
